Tested on: COLO 205
ASSAY NAME: NCI tumour cell line growth inhibition, 48 h
The source made the active and inactive calls. Cut-off read from the data, not from the text of the source: active = GI50 up to about 1.1 µM and inactive = higher.
Known GI50 of a selection of molecules
QUANTITY MEASURED: GI50

O=C(CCC(=O)CC(O)(C(F)(F)F)C(F)(F)F)CC(O)(C(F)(F)F)C(F)(F)F	29.2 µM (inactive)
CC(=O)Nc1ccc(-c2nnc(SCC(=O)Nc3cccc(Cl)c3)o2)cc1	16.6 µM (inactive)
COc1cccc(N2C(Cl)C(=O)C2c2c[nH]c3ccccc23)c1 (stereo not given)	> 100 µM (inactive)
Nc1nc(Sc2ccc([N+](=O)[O-])cn2)c2nc[nH]c2n1	11.8 µM (inactive)
C[n+]1c(-c2ccc(/C=N/N=C/c3ccc(-c4cn5ccccc5[n+]4C)cc3)cc2)cn2ccccc21	> 100 µM (inactive)
CCN(CC)CC[S+]([O-])c1c2cc(OC)ccc2nc2ccc(OC)cc12 (stereo not given)	1.88 µM (inactive)
COc1cc(C=C2C(=O)NC(=O)NC2=O)cc(OC)c1OC	> 100 µM (inactive)
CN(C)c1ccc(/C=N/c2ccc(-c3nc4ccccc4[nH]3)cc2)cc1	60.8 µM (inactive)
CCCCCOCC(O)CO (stereo not given)	> 100 µM (inactive)
CC(C)(Sc1cc(C(C)(C)C)c(O)c(C(C)(C)C)c1)Sc1cc(C(C)(C)C)c(O)c(C(C)(C)C)c1	> 100 µM (inactive)

----------
Test system: EKVX
ASSAY NAME: NCI tumour cell line growth inhibition, 48 h
Calls of active or inactive are those of the source. No stated cut-off is given here; in the data, active = GI50 up to about 1.1 µM and inactive = higher.
QUANTITY MEASURED: GI50

CC(C(O)Cc1ccccc1)N(C)/N=N/c1ccc([N+](=O)[O-])cc1 (stereo not drawn)	22.9 µM (inactive)
O=C(Cn1c2c(c3ccccc31)CCCC2)N1CCOCC1	> 100 µM (inactive)
N#CC1=C2Sc3ccccc3N2[C@H](c2ccccc2)[C@H]2COC(=O)[C@@H]12	> 100 µM (inactive)

----------
Test system: HOP-62
ASSAY NAME: NCI tumour cell line growth inhibition, 48 h
The source made the active and inactive calls. No stated cut-off is given here; in the data, active = GI50 up to about 1.1 µM and inactive = higher.
QUANTITY MEASURED: GI50

CCOC(=O)/C(C)=C(/O)C(=O)OCC	> 100 µM (inactive)
COc1ccc(/C=C(/c2ccccc2)c2c(C)cc(C)c(/C(=C\c3ccc(OC)cc3)c3ccccc3)c2/N=N/c2cc(C)cc(C)c2)cc1	20.9 µM (inactive)
COc1cc(-c2coc3c(OC)c(OC4OC(COC5OC(C)C(O)C(O)C5O)C(O)C(O)C4O)c(OC)c(O)c3c2=O)cc(C)c1O (stereo not given)	22.1 µM (inactive)
O=c1[nH]nc(Cc2ccccc2)n1/N=C/c1ccccc1O	25.9 µM (inactive)
Cn1nc2ccc3nccc(N4CCN(CCO)CC4)c3c2n1	> 100 µM (inactive)
NC1=NC(=O)[C@H](Cc2c[nH]c3ccccc23)N1C(=O)OCc1ccccc1	> 100 µM (inactive)
CCOC(=O)c1cc(-n2nnc3ccccc32)cn1C	> 10 µM (inactive)
CCOC(=O)C1=C(C)N(NC(N)=O)C2(N)N(NC(N)=O)C(C)=C(C(=O)OCC)C12C#N (stereo not given)	> 100 µM (inactive)
COc1ccc(C2=NC(CO)[C@H](c3ccccc3)O2)cc1OC (stereo not given in full)	> 100 µM (inactive)
COc1cc(C=C2C(=O)NC(=O)NC2=O)cc(OC)c1OC	> 100 µM (inactive)

----------
System: TK-10
ASSAY NAME: NCI tumour cell line growth inhibition, 48 h
The source made the active and inactive calls. Rule as the data show it: active = GI50 up to about 1.1 µM and inactive = higher.
Property: GI50; scope: individual compounds
QUANTITY MEASURED: GI50

Cc1ccc(/C=C/C(=O)c2cccc3ccccc23)cc1	15.2 µM (inactive)
CCOC(=O)NC(Nc1ccc(S(=O)(=O)Nc2nc(C)cc(C)n2)cc1)(C(=O)OCC)C(F)(F)F (stereo unspecified)	72.9 µM (inactive)
C/C(=N\NC(=O)c1ccncc1)c1ccccc1F	> 10 µM (inactive)
COC(=O)CC(=O)OC	> 100 µM (inactive)
NC(=O)c1ncn2c(=O)n(CCl)nnc12	63.1 µM (inactive)
CCOC(=O)c1c(OCC)[nH]c(=O)c(C(c2ccc(F)cc2)c2c(O)c(C(=O)OCC)c(OCC)[nH]c2=O)c1O	25.2 µM (inactive)

----------
Test system: NCI-H23
ASSAY NAME: NCI tumour cell line growth inhibition, 48 h
The source made the active and inactive calls. Rule as the data show it: active = GI50 up to about 1.1 µM and inactive = higher.
Classes used: true (1) = active, false (0) = inactive

CC(=O)OC(C[C@H](C)[C@@H]1CC[C@]2(C)C3=CCC4C(C)(C)C(=O)CC[C@]4(C)C3CCC12C)C1OC1(C)C (stereo not given in full)	false (0)
COc1ccc(-c2csc(Cc3nc4c(Br)cc(Br)cc4c(=O)n3-c3ccc(OC)cc3)n2)cc1	false (0)
COc1ccccc1NC(=S)N/N=C(/C)c1ccccn1	true (1)
Clc1c2nc3ccccc3c-2[nH]c2ccccc12	false (0)
CC/C=C/C(/C=C/C[C@]1(CC)C[C@H](CC)[C@H](CC(=O)O)OO1)CC (stereo not given in full)	false (0)
C=C(CN(C)C)C(=O)c1ccccc1Cl	false (0)
Clc1nc(Cl)nc(NC23CC4CC(CC(C4)C2)C3)n1	false (0)
O=C(c1cccc2ccccc12)N1CCC(C2CCN(C(=O)c3cccc4ccccc34)CC2)CC1	false (0)
CC1=C(OC2OC(CO)C(O)C(O)C2O)C(=O)C[C@H]2C1=CC[C@@H]1[C@@]2(C)C(=O)C[C@]2(C)[C@@H]([C@@](C)(O)C(=O)CCC(C)(C)O)[C@H](O)C[C@@]12C (stereo not given in full)	false (0)
C/C(=N\Nc1nc2ccccc2s1)c1ccc2ccccc2n1	false (0)
CC(=O)Oc1ccc2cc(Oc3ccccc3)c(=O)oc2c1	false (0)
O=C(Nc1cccc2ccccc12)c1ccccc1	false (0)
COc1ccc(/N=N/C(=NNC(=O)c2ccc(C)cc2)c2ccc(N(C)C)cc2)cc1	false (0)
NC(=O)c1ncn2c(=O)n(CCl)nnc12	false (0)
COc1cc(C(c2cc3c(cc2O)OCO3)N2CCCCC2)cc(OC)c1OC (stereo not given)	false (0)
O=c1oc2nc(-c3ccccc3)cc(C(F)(F)F)c2n1Cc1ccccc1	false (0)
CC1OC(n2cc(F)c(=O)[nH]c2=O)C(O[Si](C)(C)C(C)(C)C)C1O[Si](C)(C)C(C)(C)C (stereo not given)	false (0)
CC(NS(=O)(=O)c1ccc([N+](=O)[O-])cc1)C(=O)O (stereo not given)	false (0)
CC(=O)OCC1OC(n2c(Br)nc3c2c(=O)n(C)c(=O)n3C)C(OC(C)=O)C1OC(C)=O (stereo not given)	false (0)
COc1c(-c2ccc(O)c(O)c2)oc2c(O)c(O)cc(O)c2c1=O	false (0)

----------
GI50 by entry:
System: MDA-MB-231
ASSAY NAME: NCI tumour cell line growth inhibition, 48 h
The source made the active and inactive calls. No stated cut-off is given here; in the data, active = GI50 up to about 1.1 µM and inactive = higher.
QUANTITY MEASURED: GI50

CC(C)(Sc1cc(C(C)(C)C)c(O)c(C(C)(C)C)c1)Sc1cc(C(C)(C)C)c(O)c(C(C)(C)C)c1 [PROBUCOL]	> 100 µM (inactive)
COc1cc(C2SC(=N)Nc3c2c(C)nn3C(=O)c2ccc(Cl)cc2)ccc1O (stereo not drawn)	> 10 µM (inactive)
CN(CCNC(=O)c1n[nH]c2c1Cc1ccccc1-2)CCNC(=O)c1n[nH]c2c1Cc1ccccc1-2	19 µM (inactive)
CC1(C)OCC(C2OC(OC(=O)c3ccc([N+](=O)[O-])cc3)C3OC(C)(C)OC23)O1 (stereo not drawn)	> 100 µM (inactive)
CCCCS(=N)(=O)CC[C@H](N)C(=O)O (stereo partly drawn) [BUTHIONINE SULFOXIME]	> 5000 µM (inactive)
CCOC(=O)Nn1cnnc1Cc1ccccc1	> 100 µM (inactive)
Nc1ccc(-c2nc3cc(F)ccc3s2)cc1Cl	5.08 µM (inactive)
CC1=C(OC2OC(CO)C(O)C(O)C2O)C(=O)C[C@H]2C1=CC[C@@H]1[C@@]2(C)C(=O)C[C@]2(C)[C@@H]([C@@](C)(O)C(=O)CCC(C)(C)O)[C@H](O)C[C@@]12C (stereo partly drawn)	> 100 µM (inactive)

----------
Tested on: LOX IMVI
ASSAY NAME: NCI tumour cell line growth inhibition, 48 h
Active and inactive are the calls of the source. Cut-off read from the data, not from the text of the source: active = GI50 up to about 1.1 µM and inactive = higher.
Possible outcomes: active, inactive

CCOC(=O)C1C(c2ccccc2)C2(C#N)C(=N)OC1(C)C2(C#N)C#N (stereo unspecified)	inactive
NC(=O)c1ncn2c(=O)n(CCl)nnc12	inactive
CCCCNc1nc(NC2OCC(OC(C)=O)C(OC(C)=O)C2OC(C)=O)c(N=O)c(=O)n1C (stereo unspecified)	inactive
Cc1ccc2c(ccc(/C=C\c3cc(C)c4cccnc4c3O)[n+]2C)c1	active
COc1ccc(C(=O)/C=C/c2ccc(OCC(=N)N)cc2)cc1OC	inactive
Cc1ccc(S(=O)(=O)NC(=N)N(C)N=O)cc1	inactive
